# kon annotations
# TARGET DESC: T1, canine NGF tagged at the C-terminus with the Flag tag (canine, UniProt A0A8I3PYI3 122-241)
# T1 construct: mature; Expressed with baculovirus technology; also called feline NGF (processed form identical)
# T1 sequence (A0A8I3PYI3 entry or part of it): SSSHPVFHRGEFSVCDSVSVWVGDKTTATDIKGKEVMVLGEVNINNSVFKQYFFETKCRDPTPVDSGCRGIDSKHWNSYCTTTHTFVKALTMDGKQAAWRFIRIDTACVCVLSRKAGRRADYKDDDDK
# TEST DESCRIPTION: SPR off-rate screen, Fab-SASA on BSA chip
Express your answer in M⁻¹ s⁻¹, writing the number without its unit.

>>> readout_value("felinized clone 101 Fab-SASA variant N53I (VL) (Fab, V domains shown, not shown: small tags and cut ends) VH: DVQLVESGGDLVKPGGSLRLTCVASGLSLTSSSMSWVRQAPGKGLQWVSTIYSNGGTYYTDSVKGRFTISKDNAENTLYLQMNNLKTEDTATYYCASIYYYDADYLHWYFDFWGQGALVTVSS VL: EIQMTQSPTSLSASVGDRVTITCRASEGISNNLSWYQQTPGKAPKLLIYATSILHSGVPSRFSGSGSGTDFTLTISSLQPEDFATYYCQQGYKWPLTFGGGTKLEITR")
276000
>>> readout_value("felinized clone 101 Fab-SASA variant S30Y (VL) (Fab, V domains shown, not shown: small tags and cut ends) VH: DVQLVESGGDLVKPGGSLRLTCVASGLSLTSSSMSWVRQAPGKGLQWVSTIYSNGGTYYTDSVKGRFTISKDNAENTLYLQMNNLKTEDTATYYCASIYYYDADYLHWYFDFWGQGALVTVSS VL: EIQMTQSPTSLSASVGDRVTITCRASEGIYNNLSWYQQTPGKAPKLLIYATSNLHSGVPSRFSGSGSGTDFTLTISSLQPEDFATYYCQQGYKWPLTFGGGTKLEITR")
355000
>>> readout_value("felinized clone 101 Fab-SASA variant S31H (VH) (Fab, V domains shown, not shown: small tags and cut ends) VH: DVQLVESGGDLVKPGGSLRLTCVASGLSLTHSSMSWVRQAPGKGLQWVSTIYSNGGTYYTDSVKGRFTISKDNAENTLYLQMNNLKTEDTATYYCASIYYYDADYLHWYFDFWGQGALVTVSS VL: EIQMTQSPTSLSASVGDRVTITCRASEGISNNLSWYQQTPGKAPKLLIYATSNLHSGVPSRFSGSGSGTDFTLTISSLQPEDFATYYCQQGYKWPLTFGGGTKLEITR")
310000
>>> readout_value("felinized clone 101 Fab-SASA variant T30R (VH) (Fab, V domains shown, not shown: small tags and cut ends) VH: DVQLVESGGDLVKPGGSLRLTCVASGLSLRSSSMSWVRQAPGKGLQWVSTIYSNGGTYYTDSVKGRFTISKDNAENTLYLQMNNLKTEDTATYYCASIYYYDADYLHWYFDFWGQGALVTVSS VL: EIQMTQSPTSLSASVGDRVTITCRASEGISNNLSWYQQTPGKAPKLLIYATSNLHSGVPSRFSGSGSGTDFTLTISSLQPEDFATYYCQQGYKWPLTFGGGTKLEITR")
357000

For the binder felinized clone 101 Fab-SASA variant N53H (VL) (Fab, V domains shown, not shown: small tags and cut ends) VH: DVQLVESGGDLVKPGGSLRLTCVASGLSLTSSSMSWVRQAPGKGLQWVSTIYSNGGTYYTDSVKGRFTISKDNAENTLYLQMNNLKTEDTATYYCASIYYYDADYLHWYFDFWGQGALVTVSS VL: EIQMTQSPTSLSASVGDRVTITCRASEGISNNLSWYQQTPGKAPKLLIYATSHLHSGVPSRFSGSGSGTDFTLTISSLQPEDFATYYCQQGYKWPLTFGGGTKLEITR , what kon is on record? 322000
